# target-or-test-system: T1, Ac-VQIINK-NH2
# T1 peptide: Ac-VQIINK-NH2
# assay-procedure: cell-based or functional assay
Square brackets hold non-standard residues; d marks the D form. Ends that are not written are not given here. hArg = N=C(N)NCCCC[C@H](N)C(=O)O
readout-kind: IC50 (µM), VQIINK Inhibition (ThT)
Response body: numeric value in µM, unit text excluded.

W[hArg]I[hArg]L[hArg]W [W(hR)I(hR)L(hR)W]; 2.52
WRIRIRH; 11.6
HRIWIRYW; 4.3

API: the following record is the query input.
Data point: ARIWIRYW ; IC50 (µM), VQIINK Inhibition (ThT) = 3.14
